test system: L1210 leukemia ip in BDF1 mice, survival T/C; test: NCI In Vivo Anticancer Drug Screen. Data for tumor model L1210 Leukemia (intraperitoneal) in B6D2F1 (BDF1) mice; details: endpoint: mean survival time; dose: 400.0 mg/kg/injection; schedule: Q04DX003 (ip); vehicle: Klucel (hydroxypropylcellulose) (HPC); higher = longer survival
Inconclusive results and toxic doses are left out.
measured_metric: T/C

# annotated cases, reported T/C shown
Problem: Suppose we examine the compound CC(=O)Nc1nc(NC(C)=O)c2nc(CCN(C)c3ccc(C(=O)O)cc3)cnc2n1 ; what T/C value has been reported?
Result: 100 % of control

Problem: Follow-up item: CCCCCCCCCCCS(=O)(=O)C(CCOS(C)(=O)=O)COS(C)(=O)=O (configuration not stated)
Result: 96 % of control

Problem: Follow-up item: COC(=O)Nc1cccc2c1C=CC(C#N)N2C(=O)OC (configuration not stated)
Result: 100 % of control

Problem: What would you report for O=[N+]([O-])c1ccc(CC(O)c2ccccc2)cc1 (configuration not stated) ?
Result: 105 % of control

Problem: Same read-out for O=C(O)CN1C(=O)CN=C(c2ccccn2)c2cc(Cl)ccc21 ?
Result: 97 % of control

More entries:
Problem: Given O=S(=O)(CCCl)c1ccccc1 , state its recorded T/C.
Result: 94 % of control

Problem: Same thing, different compound: C=C(C)Cc1cnc(SCc2ccccc2)[nH]c1=O
Result: 104 % of control

Problem: Thanks! And Cc1nc(N)nc2c1CCC(=O)N2 ?
Result: 94 % of control

Problem: Next entry: NCOC(=O)Cc1ccc(Br)cc1
Result: 101 % of control

Problem: And what about the compound CCCCCCCCCCCCCCCCC(Oc1ccc(Cl)cc1Cl)C(=O)O (configuration not stated) ?
Result: 101 % of control

Problem: Do the same for O=c1[nH]/c(=C\c2ccc3c(c2)OCO3)c(=O)[nH]/c1=C\c1ccc2c(c1)OCO2 please
Result: 98 % of control

Problem: How about C(=C\CN(Cc1ccccc1)Cc1ccccc1)/CN(Cc1ccccc1)Cc1ccccc1 ?
Result: 87 % of control

---

T/C values by entry
tested on: L1210 leukemia ip in BDF1 mice, survival T/C; assay: NCI In Vivo Anticancer Drug Screen. Data for tumor model L1210 Leukemia (intraperitoneal) in B6D2F1 (BDF1) mice; details: endpoint: mean survival time; dose: 400.0 mg/kg/injection; schedule: Q01DX001 (ip); vehicle: carboxymethylcellulose (CMC); higher = longer survival
Toxic doses and inconclusive results are not listed.

Problem: I would be grateful if you could share the reported T/C for Cc1ccc([N+](=O)[O-])cc1NC(=O)c1ccccc1 .
Result: 93 % of control

Others:
Problem: Report T/C for CC(=O)[O][Ge]([CH2]CC(C)C)([CH2]CC(C)C)[CH2]CC(C)C please.
Result: 96 % of control

---

tested on: L1210 leukemia ip in BDF1 mice, survival T/C; test: NCI In Vivo Anticancer Drug Screen. Data for tumor model L1210 Leukemia (intraperitoneal) in B6D2F1 (BDF1) mice; settings: endpoint: mean survival time; dose: 25.0 mg/kg/injection; schedule: Q01DX009 (ip); vehicle: saline with Tween-80; higher = longer survival
Toxic doses and inconclusive results are not listed.
Reported T/C by item:

# annotated cases, reported T/C shown
Problem: Fill in the blank: the reported T/C of N#CSCc1ccc(Cl)cc1 is ____.
Result: 92 % of control

Problem: Try O=C(O)C(O)CBr (configuration not stated) next.
Result: 95 % of control

More entries:
Problem: What measured T/C goes with CCCCCCCC1N(C)CCCN1C ?
Result: 88 % of control

Problem: Follow-up entry: O=C1NC(=O)C2C3C=CC(C12)C1C2C(=O)NC(=O)C2C31 (configuration not stated)
Result: 95 % of control

Problem: Same again, this time with Cc1ccc(C(=O)CCl)c(C)c1
Result: 100 % of control

Problem: Continue with C=CCCC[P+](c1ccccc1)(c1ccccc1)c1ccccc1
Result: 108 % of control

Problem: And then O=C(Nc1ccc(Br)cc1)c1nc(Br)[nH]c1Br , what is it?
Result: 89 % of control
